# Test system: MDCK cells
# measurement description: in vitro
# test parameters: dog, Cytotoxicy IC50

compound: COC1CC(C)(C)CC(C)(CNc2nc3ccccc3o2)C1 (stereo not drawn)
sign: >
IC50 at 3 day (µM): 50

compound: CC1(C)CC(O)CC(C)(C(=O)Nc2ccc(F)c(C(F)(F)F)c2)C1 (stereo not drawn)
sign: =
IC50 at 3 day (µM): 29.6

compound: CC1(C)CC(C)(O)CC(C)(CNc2cc(F)cc(C(F)(F)F)c2)C1 (stereo not drawn)
sign: >
IC50 at 3 day (µM): 3.16

compound: CC1(C)CC(O)CC(C)(C(=O)Nc2cc(Cl)cc(Cl)c2)C1 (stereo not drawn)
sign: =
IC50 at 3 day (µM): 23.2

compound: CC1(C)CC(O)CC(C)(CNc2ccc(Cl)c(Cl)c2)C1 (stereo not drawn)
sign: =
IC50 at 3 day (µM): 2.49

compound: CC1(C)CC(O)CC(C)(C(=O)Nc2cc(F)cc(Cl)c2)C1 (stereo not drawn)
sign: =
IC50 at 3 day (µM): 56.4

compound: COc1cccc(NCC2(C)CC(O)CC(C)(C)C2)c1 (stereo not drawn)
sign: >
IC50 at 3 day (µM): 50

compound: Cc1cc(Cl)cc(NCC2(C)CC(O)CC(C)(C)C2)c1 (stereo not drawn)
sign: >
IC50 at 3 day (µM): 3.16

compound: COC1CC(C)(C)CC(C)(CNc2cc(F)cc(C(F)(F)F)c2)C1 (stereo not drawn)
sign: >
IC50 at 3 day (µM): 3.16

---

# Test system: MDCK cells
# measurement description: in vitro
# test parameters: dog, Cytotoxicy IC50
Could you please classify the records by IC50 at 3 day using these ranges: Low = under 10 µM, Mid = from 10 µM up to 40 µM, High = 40 µM and over

compound: CC1(C)CC(O)CC(C)(CNc2nc3ccccc3o2)C1 (stereo not shown)
label class: High
--
compound: CC1(C)CC(O)CC(C)(C(=O)Nc2cccc(C(F)(F)F)c2)C1 (stereo not shown)
label class: High
--
compound: CC1(C)CC(O)CC(C)(CNc2cc(F)cc(C(F)(F)F)c2)C1 (stereo not shown)
label class: Low
--
compound: CC1(C)CC(O)CC(C)(CNc2ncccc2C(F)(F)F)C1 (stereo not shown)
label class: Mid
--
compound: CC1(C)CC(O)CC(C)(CNc2cc(C#N)cc(C(F)(F)F)c2)C1 (stereo not shown)
label class: Mid
--
compound: CN(CC1(C)CC(O)CC(C)(C)C1)c1cccc(Cl)c1 (stereo not shown)
label class: Low
--
compound: CC1(C)CC(O)CC(C)(C(=O)Nc2cccc(OC(F)(F)F)c2)C1 (stereo not shown)
label class: High
--
compound: CC1(C)CC(O)CC(C)(CNc2noc3ccccc23)C1 (stereo not shown)
label class: High
--
compound: CC1(C)CC(O)CC(C)(CNc2nccc(C(F)(F)F)n2)C1 (stereo not shown)
label class: High
--
compound: CC1(C)CC(O)CC(C)(C(=O)Nc2cccc(S(N)(=O)=O)c2)C1 (stereo not shown)
label class: High
--
compound: CC(=O)NC1CC(C)(C)CC(C)(C(=O)Nc2cccc(Cl)c2)C1 (stereo not shown)
label class: High
--
compound: CC1(C)CC(O)CC(C)(CNc2nccc3ccccc23)C1 (stereo not shown)
label class: High
--
compound: CC1(C)CC(O)CC(C)(CNc2cc(C(F)(F)F)cc(C(F)(F)F)c2)C1 (stereo not shown)
label class: Low
--
compound: CC1(C)CC(F)(F)CC(C)(CNc2nc3ccccc3o2)C1 (stereo not shown)
label class: Mid
--
compound: CC(C)c1cccc(NC(=O)C2(C)CC(O)CC(C)(C)C2)c1 (stereo not shown)
label class: Mid
--
compound: CC1(C)CC(NS(C)(=O)=O)CC(C)(C(=O)Nc2cccc(Cl)c2)C1 (stereo not shown)
label class: High
--
compound: CC1(C)CCCC(C)(CNc2cc(F)cc(C(F)(F)F)c2)C1 (stereo not shown)
label class: Low
--
compound: CC(=O)N(C(C)=O)C1CC(C)(C)CC(C)(C(=O)Nc2cccc(Cl)c2)C1 (stereo not shown)
label class: Mid
--
compound: CC1(C)CC(O)CC(C)(CNc2cc(S(N)(=O)=O)ccn2)C1 (stereo not shown)
label class: High
--
compound: CC1(C)CC(O)CC(C)(C(=O)Nc2cc(F)cc(F)c2)C1 (stereo not shown)
label class: High
--
compound: CC1(C)CC(O)CC(C)(C(=O)Nc2cc(F)cc(C(F)(F)F)c2)C1 (stereo not shown)
label class: High
--
compound: CC1(C)CC(O)CC(C)(C(=O)Nc2cccc(Cl)c2)C1 (stereo not shown)
label class: High
--
compound: CN(C)C1CC(C)(C)CC(C)(CNc2cc(F)cc(C(F)(F)F)c2)C1 (stereo not shown)
label class: Low
--
compound: CC1(C)CC(O)CC(C)(CNc2cc(Cl)cc(Cl)c2)C1 (stereo not shown)
label class: Low
--
compound: CC1(C)CC(O)CC(C)(CNc2cc(F)cc(C#N)c2)C1 (stereo not shown)
label class: Mid
--
compound: Cc1cc(C)nc(NCC2(C)CC(O)CC(C)(C)C2)n1 (stereo not shown)
label class: High
--
compound: COc1ccnc(NCC2(C)CC(O)CC(C)(C)C2)n1 (stereo not shown)
label class: High
--
compound: CC1(C)CC(O)CC(C)(C(=O)Nc2cc(Cl)cc(C(F)(F)F)c2)C1 (stereo not shown)
label class: Mid
--
compound: CC(C)c1cccc(NCC2(C)CC(O)CC(C)(C)C2)c1 (stereo not shown)
label class: Low
--
compound: CC1(C)CC(O)CC(C)(C(=O)Nc2ccc(Cl)c(Cl)c2)C1 (stereo not shown)
label class: Low
--
compound: CC1(C)CC(O)CC(C)(C(=O)Nc2cc(Br)cc(C(F)(F)F)c2)C1 (stereo not shown)
label class: Low
--
compound: COc1cc(NC(=O)C2(C)CC(O)CC(C)(C)C2)cc(C(F)(F)F)c1 (stereo not shown)
label class: High
--
compound: CC1(C)CC(O)CC(C)(CNc2cncc(Cl)n2)C1 (stereo not shown)
label class: High
--
compound: CC1(C)CC(O)CC(C)(C(=O)Nc2ccc(Cl)c(F)c2)C1 (stereo not shown)
label class: Mid
--
compound: CC(=O)OC1CC(C)(C)CC(C)(CNc2ccccc2)C1 (stereo not shown)
label class: High
